- Tested on: COR-L88 (Small Cell Lung Carcinoma);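 further: after 72 h of two-drug dosing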
- protocol-details: Bliss excess, mean over the matrix (fraction); higher = more synergy
metric-name: Bliss excess

Recorded results for 3 compounds are shown here.
COc1cccc2c1C(=O)c1c(O)c3c(c(O)c1C2=O)C[C@@](O)(C(=O)CO)C[C@@H]3O[C@H]1C[C@H](N)[C@H](O)[C@H](C)O1 [Doxorubicin] + Cc1cc2ncnn2cc1Nc1ncc2c(n1)n(C1CCOCC1)c(=O)n2C [AZD7648] (first compound max 1 µM, 7x7, partner max 10 µM) ... -0.0228
COc1nnc2ccc(N3CCC(c4ccc(OCCN5CCN(C)C(=O)[C@H]5C)cc4)CC3)nn12 [AZD5153] + CCN(CCO)CCCOc1ccc2c(Nc3cc(CC(=O)Nc4cccc(F)c4)[nH]n3)ncnc2c1 [AZD2811] (first compound max 1 µM, 7x7, partner max 1 µM) ... -0.0231
COc1nnc2ccc(N3CCC(c4ccc(OCCN5CCN(C)C(=O)[C@H]5C)cc4)CC3)nn12 [AZD5153] + C[C@@H]1COCCN1C2=NC(=NC(=C2)C3(CC3)[S@](=N)(=O)C)C4=C5C=CNC5=NC=C4 [AZD6738] (first compound max 1 µM, 7x7, partner max 10 µM) ... -0.0201

# ---- query compound ----
Write down the reported Bliss excess of Cc1c2c(nn1C)CSCc1cc(n(C)n1)CSc1cc(c3ccccc3c1)OCCCc1c(C(=O)O)n(C)c3c-2c(Cl)ccc13 [AZD5991] + CCN(CCO)CCCOc1ccc2c(Nc3cc(CC(=O)Nc4cccc(F)c4)[nH]n3)ncnc2c1 [AZD2811] (first compound max 1 µM, 7x7, partner max 1 µM) , test system: COR-L88 (Small Cell Lung Carcinoma).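 Further: after 72 h of two-drug dosing.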
0.0453
